src = the supplement of paper PMC7125110

B1: glmS ribozyme (parent)
chain: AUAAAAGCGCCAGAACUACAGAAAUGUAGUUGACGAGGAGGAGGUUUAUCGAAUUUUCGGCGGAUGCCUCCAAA

Variants of: B1
Assay: self-cleavage kobs at 2500 uM GlcN6P; higher = faster cleavage; RNA array
Conditions: with glucosamine-6-phosphate
Fewer inactive variants are shown than the library holds.
Measured Attribute: self-cleavage kobs at 2500 uM GlcN6P (s⁻¹)

> print(dat)
                        mutations  inequality.operator   reading
 1                      A33C A52C                    <     1e-05
 2                      A12G G32U                    =   0.00055
 3                      A15G U65G                    =   0.00285
 4                 A14U U30G U54C                    =   0.00185
 5                  A6U A14C G35A                    <     1e-05
 6                      C50G G60A                    =   4.5e-05
 7                      G63U C68G                    <     1e-05
 8            G40A G43C G60C C67U                    <     1e-05
 9                      U47G G60U                    <     1e-05
10                  A6U A15U A36C                    <     1e-05
11            G32C G41A G63A C70U                    <     1e-05
12                 G38U U45C U57A                    <     1e-05
13                 U45G G60A C67G                    <     1e-05
14                      A53U C58U                    =  3.23e-05
15            G40U U49A A64U C70U                    <     1e-05
16                  C8U G32C C70U                    <     1e-05
17                 C11A G37A G38C                    <     1e-05
18                 G13U A15U G44A                    <     1e-05
19                 U30C G32C U55A                    =  0.000128
20  C10A G29C A42G U55C U56C C70U                    <     1e-05
21                  C8G C16U U57A                    <     1e-05
22                      G44A A53U                    =  0.000174
23            A36G C58A G59U C70U                    <     1e-05
24            A15G G51U G63U C68G                    =  0.000286
25                      A39C A52G                    =   0.00017
26                 G29A A39U G40A                    =  0.000397
27                   A6C C8A C67A                    <     1e-05
28                      G13U A64G                    =  0.000657
29                      C50G A53G                    =  3.81e-05
30                 A39U C58A A64U                    <     1e-05
31            C16U G37U A42G G51U                    <     1e-05
32                      U30A G41A                    =  0.000127
33                      A12U A48G                    =  0.000246
34                       C8G G29U                    <     1e-05
35                      U31A C70A                    =  5.68e-05
36                      G29A U69A                    =   3.9e-05
37       U49A C50G U57A C67A C71A                    =   7.6e-05
38                      U56C U57G                    =  2.91e-05
39                      A39U A48U                    =  0.000201
40            U46C G60U G62U G63C                    <     1e-05
41                      C10U A42U                    <     1e-05
42                      G37C C71U                    =  2.55e-05
43             G7A G41C U45C U47C                    <     1e-05
44                      C16A C70U                    =  0.000365
45                      C11U C71G                    =  8.38e-05
46                 G40U G44U G62U                    <     1e-05
